Source: patent US20250197372A1

TEST TARGET: recombinant alpha-glucosidase II (murine full-length glucosidase II, alpha and beta subunits, Glu 2) (Mus musculus)
Construct: made in house; host or cells: HEK-293T cells transduced with BacMam viruses (75% alpha, 25% beta); protein harvested from culture supernatant
Sequence (O08795 15-521): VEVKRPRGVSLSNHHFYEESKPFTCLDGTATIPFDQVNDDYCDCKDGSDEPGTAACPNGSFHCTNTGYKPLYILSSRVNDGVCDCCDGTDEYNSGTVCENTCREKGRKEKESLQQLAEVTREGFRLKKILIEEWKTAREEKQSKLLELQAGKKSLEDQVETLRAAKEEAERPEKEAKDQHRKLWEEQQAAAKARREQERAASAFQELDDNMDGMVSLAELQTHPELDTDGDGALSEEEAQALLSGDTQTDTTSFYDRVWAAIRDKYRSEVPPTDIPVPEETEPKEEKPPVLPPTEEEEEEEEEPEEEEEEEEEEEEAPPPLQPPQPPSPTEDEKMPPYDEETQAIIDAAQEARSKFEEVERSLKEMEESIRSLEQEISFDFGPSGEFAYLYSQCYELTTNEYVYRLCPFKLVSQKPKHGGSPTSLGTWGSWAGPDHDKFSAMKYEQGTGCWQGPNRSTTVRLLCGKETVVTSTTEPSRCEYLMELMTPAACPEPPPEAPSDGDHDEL
Sequence (Q8BHN3 33-944): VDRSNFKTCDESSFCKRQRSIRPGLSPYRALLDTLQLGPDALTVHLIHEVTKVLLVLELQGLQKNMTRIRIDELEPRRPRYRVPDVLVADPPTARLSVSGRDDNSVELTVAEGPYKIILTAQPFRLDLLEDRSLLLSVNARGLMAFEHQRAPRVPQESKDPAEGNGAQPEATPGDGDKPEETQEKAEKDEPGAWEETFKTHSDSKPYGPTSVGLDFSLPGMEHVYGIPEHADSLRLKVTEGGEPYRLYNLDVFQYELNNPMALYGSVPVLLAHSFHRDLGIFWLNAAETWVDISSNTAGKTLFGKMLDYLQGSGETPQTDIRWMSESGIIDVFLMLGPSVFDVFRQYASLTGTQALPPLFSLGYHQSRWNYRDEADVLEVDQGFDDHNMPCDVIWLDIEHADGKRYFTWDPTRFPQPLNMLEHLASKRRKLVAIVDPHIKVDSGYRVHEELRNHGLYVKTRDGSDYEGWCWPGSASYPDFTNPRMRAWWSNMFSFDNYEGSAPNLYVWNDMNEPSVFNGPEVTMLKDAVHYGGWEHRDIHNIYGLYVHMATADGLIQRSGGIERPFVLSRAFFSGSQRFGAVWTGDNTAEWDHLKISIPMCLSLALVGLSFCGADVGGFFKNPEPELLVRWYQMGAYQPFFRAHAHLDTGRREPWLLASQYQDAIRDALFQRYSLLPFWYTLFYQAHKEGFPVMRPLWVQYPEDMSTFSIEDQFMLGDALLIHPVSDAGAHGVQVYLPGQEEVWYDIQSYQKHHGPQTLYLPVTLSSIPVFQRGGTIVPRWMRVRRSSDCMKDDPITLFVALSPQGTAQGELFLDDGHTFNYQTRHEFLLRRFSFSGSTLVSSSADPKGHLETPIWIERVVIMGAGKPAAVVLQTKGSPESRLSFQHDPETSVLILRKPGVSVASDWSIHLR
ASSAY OVERVIEW: Alpha-glucosidase II assay (4-methylumbelliferyl-alpha-D-pyranoside substrate, fluorescence)
Format: biochemical
CONDITION CONTEXT: Glucosidase 2; read-out: Glu2 IC50
pIC50: −log10 of the molar value.
# binarize pIC50: threshold 7 inclusive, high side true, low side false

See these solved cases before continuing.
Entry [N-]=[N+]=Nc1ccc(NCCOCCN2C[C@H](O)[C@@H](O)[C@H](O)[C@H]2CO)c([N+](=O)[O-])c1 [Compound 1255] : is its pIC50 no less than 7?
true

Can O=[N+]([O-])c1cc(N2CCOCC2)ccc1NCc1ccc(CN2C[C@@H](O)[C@H](O)[C@@H](O)[C@@H]2CO)cc1 (stereo in doubt) [Compound 1069] be said to have pIC50 at or above 7?
true

Quick check: does OC[C@@H]1[C@@H](O)[C@H](O)[C@@H](O)CN1Cc1cnc(CNc2cc(-c3ncccn3)cc(C3CC3)c2)cn1 [Compound 1329] have pIC50 greater than or equal to 7?
false

# check: pIC50 of [N-]=[N+]=Nc1ccc(NCCc2cnn(CCN3C[C@H](O)[C@@H](O)[C@H](O)[C@H]3CO)c2)c([N+](=O)[O-])c1 [Compound 1191] is greater than or equal to 7
false

Further cases:
Is pIC50 at least 7? Consider [N-]=[N+]=Nc1ccc(NCCNc2cc(Cl)cc(CCN3C[C@H](O)[C@@H](O)[C@H](O)[C@H]3CO)c2)c([N+](=O)[O-])c1 [Compound 1143]
true

* * *

TEST TARGET: recombinant alpha-glucosidase II (murine full-length glucosidase II, alpha and beta subunits, Glu 2) (Mus musculus)
Construct: made in house; host or cells: HEK-293T cells transduced with BacMam viruses (75% alpha, 25% beta); protein harvested from culture supernatant
ASSAY OVERVIEW: Alpha-glucosidase II assay (4-methylumbelliferyl-alpha-D-pyranoside substrate, fluorescence)
Format: biochemical
CONDITION CONTEXT: Glucosidase 2; read-out: Glu2 IC50
# IC50 per entry
Give the quantity in nM, number only.

// below: answered compounds
Value lookup for IC50; key = CS(=O)(=O)c1cc(Br)cc(NCc2cccc(CN3C[C@H](O)[C@@H](O)[C@H](O)[C@H]3CO)c2)c1 [Compound 1022]
7920

Requested read-out: IC50. Entry: COc1cc(NCCc2ccc(CCN3C[C@H](O)[C@@H](O)[C@H](O)[C@H]3CO)cc2)cc(-c2noc(C3CCC3)n2)c1 [Compound 1120]
1

Which IC50 is reported for this compound? Cc1cc(NCc2ccc(CN3C[C@H](O)[C@@H](O)[C@H](O)[C@H]3CO)cc2)cc(N2CCOCC2)c1 [Compound 1048]
550

More entries:
I am curious: what IC50 value has been reported for COc1ccc(CCCCCN2C[C@H](O)[C@@H](O)[C@H](O)[C@H]2CO)cc1 [Compound 1310] ?
78

Quick check: IC50 of NC(=O)c1cc(-c2ncccn2)ccc1NCCCCCCN1C[C@H](O)[C@@H](O)[C@H](O)[C@H]1CO [Compound 1266] ?
7

What measured IC50 goes with OC[C@@H]1[C@@H](O)[C@H](O)[C@@H](O)CN1CCCCCCCCC1CNCCO1 (some centres unmarked) [Compound 1311] ?
197

I am curious: what IC50 value has been reported for [N-]=[N+]=Nc1ccc(NCc2ccc(Cc3ccc(CN4C[C@H](O)[C@@H](O)[C@H](O)[C@H]4CO)cc3)cc2)c([N+](=O)[O-])c1 [Compound 1105] ?
151

Given N#Cc1cc(NCCCCCCN2C[C@H](O)[C@@H](O)[C@H](O)[C@H]2CO)cc(-c2ncccn2)c1 [Compound 1130] , state its recorded IC50.
6

Report IC50 for O=[N+]([O-])c1cc(N2CC3CC2CO3)ccc1NCc1ccc(CN2C[C@@H](O)[C@H](O)[C@@H](O)[C@@H]2CO)cc1 (stereo in doubt) [Compound 1015] please.
2

I would be grateful if you could share the reported IC50 for Cc1cc(Br)cc(NCc2cccc(CN3C[C@H](O)[C@@H](O)[C@H](O)[C@H]3CO)c2)c1 [Compound 1021] .
35000

Please give the measured IC50 for this compound: OC[C@@H]1[C@@H](O)[C@H](O)[C@@H](O)CN1Cc1ccc(CNc2cc(-c3cccnn3)cc(C3CC3)c2)cc1 [Compound 1012]
1320
